The reported measurements were obtained from patent US12077503B2.

system: wheat (Triticum aestivum); experiment: Test A postemergence; format: in vivo; conditions: Triticum aestivum, post-emergence, 240 h, 125 g ai/ha, Postemergence, visual rating about 10 d after treatment; read-out: Wheat plant response rating (0 to 100 scale)
experimental_endpoint: plant injury at 125 g/ha (%)
Numbers only, in %.

Below, 5 compounds whose answers are already recorded.
compound	assayed_system	plant injury at 125 g/ha (%)
CS(=O)(=O)c1ccccc1NC(=O)[C@H]1C(=O)NC[C@@H]1c1ccc2c(c1)CCO2	wheat (Triticum aestivum)	0
Cc1ccc([C@H]2CN(C)C(=O)[C@@H]2C(=O)Nc2c(F)c(F)c(F)c(F)c2F)cc1	wheat (Triticum aestivum)	0
Cc1cccc([C@H]2CN(C)C(=O)[C@@H]2C(=O)Nc2cnccc2C)c1	wheat (Triticum aestivum)	0
CN1C[C@H](c2csc3c2CCC3)[C@@H](C(=O)Nc2cccc(F)c2F)C1=O	wheat (Triticum aestivum)	0
Cc1c(F)cccc1NC(=O)[C@H]1C(=O)NC[C@@H]1c1cccc2c1OC(F)(F)O2	wheat (Triticum aestivum)	0

# return plant injury at 125 g/ha for each item in the list
1. COc1c([C@H]2CN(C)C(=O)[C@@H]2C(=O)Nc2cccc(F)c2F)cccc1C(F)(F)F
2. Cc1c(F)ccc([C@H]2CNC(=O)[C@@H]2C(=O)Nc2cccc(F)c2F)c1F
3. O=C(Nc1ccccc1F)C1C(=O)N(CC(F)F)CC1c1cccc(C(F)(F)F)c1 (centres unmarked)
4. CC(C)Oc1ccc([C@H]2CN(C)C(=O)[C@@H]2C(=O)Nc2ccccc2F)cc1F

0
0
0
0

I would be grateful if you could provide plant injury at 125 g/ha for each of the following entries.
1. Cc1ccc([C@H]2CN(C)C(=O)[C@@H]2C(=O)Nc2ccccc2)cc1
2. CN1C[C@H](c2ccc3c(c2)OC(F)(F)O3)[C@@H](C(=O)Nc2ccccc2C(F)(F)F)C1=O

1. 30
2. 20
